target: δ-opiate receptor (Rattus norvegicus); construct: freshly prepared rat brain was homogenised in 50 mmoles/l Tris-HCl (pH 7.4); from tissue; host or cells: rat brain without cerebellum, pons and medulla oblongata, male Wistar rats; membrane homogenate; test: δ-opiate receptor binding, displacement of (^3H)-2-D-Ala-deltorphin II on rat brain homogenates; set-up: species or system rat (male Wistar rats); details: 90 minutes at 37° C., pH 7.4, mean value ± standard deviation from three independent tests, read-out: δ-opiate receptor binding Ki
Sequence (P33533 whole entry): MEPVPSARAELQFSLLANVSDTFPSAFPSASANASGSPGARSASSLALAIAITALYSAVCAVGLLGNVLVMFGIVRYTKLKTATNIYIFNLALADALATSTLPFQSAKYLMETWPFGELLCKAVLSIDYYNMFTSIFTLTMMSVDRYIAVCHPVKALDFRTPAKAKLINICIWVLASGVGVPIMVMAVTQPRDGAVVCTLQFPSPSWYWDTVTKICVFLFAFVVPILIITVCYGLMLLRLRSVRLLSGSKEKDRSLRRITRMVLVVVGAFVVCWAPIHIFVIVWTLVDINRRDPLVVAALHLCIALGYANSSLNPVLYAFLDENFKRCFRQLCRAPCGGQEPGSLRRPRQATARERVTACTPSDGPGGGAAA
pKi: −log10 of the molar value. Structures can show the parent of a compound that is named as a salt.
Decide by pKi: equal to or exceeding 8 means t, less means f.

{"compound": "CN(C)CC1=C(c2cccc(O)c2)c2ccccc2OC1 [Example 7, hydrochloride]", "group": "f"}
{"compound": "CN(C)CC1=C(c2cccc(O)c2)c2ccccc2SC1 [Example 5, hydrochloride]", "group": "f"}
{"compound": "COc1ccc2c(c1)[S+]([O-])CCC(CN(C)C)=C2c1cccc(O)c1 (centres unmarked) [Example 9a, hydrochloride]", "group": "t"}

Shifting focus to the compound that follows.
Query string: Check the entry CN(C)CC1=C(c2cccc(O)c2)c2ccccc2[S+]([O-])CC1 (racemic) [Example 3, hydrochloride] : does pKi equal or exceed 8?
Result string: t
